Reference source: paper PMC12040169

The reader will find reported viability at 28.5 h, 10 µM values listed item by item below.
# TEST_DESCRIPTION: in vitro
# CONDITION_SET: human, hela cells, % viability
Just the number please, in %, no unit attached.

Some solved cases for reference:
COMPOUND: CCN(CC)C(=O)CN1CCCN(c2cc(Oc3ccc(OC)c(OC)c3)ncn2)CC1 [CBK083359T]
viability at 28.5 h, 10 µM (%): 98.5
//
COMPOUND: CCOC(=O)CNS(=O)(=O)c1cc(Cl)sc1Cl [CBK034431]
viability at 28.5 h, 10 µM (%): 113

Inquiry: # get_value(readout='viability at 28.5 h, 10 µM', item= Nc1ccccc1C(=O)NCc1ccncc1 [CBK057024] )
Reply text: 90.1

Inquiry: Can you share its viability at 28.5 h, 10 µM? I mean this compound: COCc1cc(C)nc(OCC(=O)N2CCCCC2)c1C#N [CBK270228]
Reply text: 104

Inquiry: // query viability at 28.5 h, 10 µM value for entry O=C(/C=C/c1cn(C2CC(O)C(CO)O2)c(=O)[nH]c1=O)NCCNC(=O)C(F)(F)F (stereo not drawn) [CBK201214]
Reply text: 98.2

---

# TEST_DESCRIPTION: in vitro
# Set-up: Viability of infected HeLa host cells, resazurin conversion, bulk resorufin fluorescence relative to DMSO
# CONDITION_SET: human, hela cells; bulk resorufin, mean of 2
PARAMETER_MEASURED: viability at 28.5 h, 5 µM (%)
Return type: number; implicit unit %.

MOLECULE: CC(=O)NC[C@H]1CN(c2ccc(-c3nnc(CCC#N)s3)c(F)c2)C(=O)O1 [CBK017926]
EXPERIMENTAL_RESULT: 92
//
MOLECULE: O=C(CC1SC(Nc2ccc(O)cc2)=NC1=O)c1ccccc1 (centres unmarked) [CBK267009]
EXPERIMENTAL_RESULT: 112
//
MOLECULE: COc1cc(C=C2SC(NCC(=O)O)=NC2=O)ccc1OCc1ccc(Cl)cc1Cl [CBK297555]
EXPERIMENTAL_RESULT: 92.1
//
MOLECULE: Cc1nc(C(=N)N)nc2ccccc12 [CBK010368C]
EXPERIMENTAL_RESULT: 94.3

Here is the next item to consider.
Inquiry: Give the measured viability at 28.5 h, 5 µM of O=C(Nc1cc(Cl)nc(Cl)c1)N(Cc1ccc(-c2ccccc2)cc1)CC1CCNCC1 [CBK049794] .
Reply text: 100

---

The entries below come with measured viability at 28.5 h, 5 µM values attached.
# TEST_DESCRIPTION: in vitro
# Design: Viability of infected HeLa host cells, resazurin conversion, bulk resorufin fluorescence relative to DMSO
# CONDITION_SET: human, hela cells; bulk resorufin, mean of 2

Inquiry: I'd like to know its viability at 28.5 h, 5 µM. The compound in question is "Cc1ccc(CNC(=O)OCc2cccnc2C)o1"
Reply text: 104%

Inquiry: Requested field: viability at 28.5 h, 5 µM. Item: COc1ccc(C2CC(=O)C=C(Nc3cc(Cl)ccc3O)C2)cc1 (centres unmarked)
Reply text: 101%

Inquiry: Entry under review: "C/C(Nc1ccc(S(=O)(=O)Nc2nccc(C)n2)cc1)=C1\C(=O)N(c2nc3ccccc3s2)N=C1C(F)(F)F" . Reported viability at 28.5 h, 5 µM?
Reply text: 89.8%

Inquiry: State the recorded viability at 28.5 h, 5 µM for this entry: NC(Cc1ccccc1)CN(CC1(c2ccc(Cl)cc2)CC1)C(=O)Nc1ccc2c(c1)OCO2 (centres unmarked) [CBK002342C]
Reply text: 95.4%

Inquiry: I'd like to know its viability at 28.5 h, 5 µM. The compound in question is "COc1cc(NS(=O)(=O)c2ccc(Nc3nc(-c4sc(N)nc4C)cs3)cc2)nc(OC)n1"
Reply text: 92.2%

Inquiry: Which value of viability at 28.5 h, 5 µM has been reported for "O=C(Nc1cccc2c(NC(=O)N3CCCCC3)cccc12)N1CCCCC1" in the records?
Reply text: 88.8%

Inquiry: What value of viability at 28.5 h, 5 µM has been reported for the following compound? "CCc1nnc(NS(=O)(=O)c2ccc(N/C=C\C(=O)c3ccc4ccccc4c3)cc2)s1"
Reply text: 95.1%

Inquiry: Look up viability at 28.5 h, 5 µM for this compound: c1ccc2c3c([nH]c2c1)C1(CCN(CCC2CCCCC2)C1)OCC3 (centres unmarked)
Reply text: 90%

---

# TEST_DESCRIPTION: in vitro
# CONDITION_SET: human, hela cells, % viability
PARAMETER_MEASURED: viability at 28.5 h, 10 µM (%)
Answer format: numeric, % implied, no suffix.

Would you please look over these solved cases?
COMPOUND: OCCNc1ncnc2ccc(Br)cc12 [CBK073217]
PARAMETER_MEASURED: viability at 28.5 h, 10 µM
EXPERIMENTAL_RESULT: 93.9
//
COMPOUND: COc1cc(-c2cn3ccnc3c(N[C@@H]3CCN(Cc4ccccc4)C3)n2)cc(OC)c1OC [CBK037385]
PARAMETER_MEASURED: viability at 28.5 h, 10 µM
EXPERIMENTAL_RESULT: 113
//
COMPOUND: O=C(Nc1nn(Cc2ccc(Oc3ccccc3)cc2)c2ccccc12)c1ccno1 [CBK048224]
PARAMETER_MEASURED: viability at 28.5 h, 10 µM
EXPERIMENTAL_RESULT: 97.8
//
COMPOUND: CCn1cc(S(=O)(=O)NC2(c3ccc(F)cc3)CC2)cn1 [CBK282801]
PARAMETER_MEASURED: viability at 28.5 h, 10 µM
EXPERIMENTAL_RESULT: 112
//
COMPOUND: COc1ccc(CCCC(=O)Nc2ccc(N3CCNCC3)c3ccccc23)cc1OC [CBK028406T]
PARAMETER_MEASURED: viability at 28.5 h, 10 µM
EXPERIMENTAL_RESULT: 105
//
COMPOUND: CCn1cncc1CN(CCCn1ccnc1)Cc1ccc(C)s1 [CBK283104]
PARAMETER_MEASURED: viability at 28.5 h, 10 µM
EXPERIMENTAL_RESULT: 93.6

Inquiry: # lookup: viability at 28.5 h, 10 µM of CCCCC(=O)NCCc1ccc(S(N)(=O)=O)cc1 [CBK288360]
Reply text: 91.5

Inquiry: What value of measured viability at 28.5 h, 10 µM is listed for COCc1cn(C[C@H]2CC3CCN2C[C@@H]3C(=O)NC(C)C)nn1 (stereo partly drawn) [CBK288733] ?
Reply text: 89.2

Inquiry: Given O=C(O)c1cc(S(=O)(=O)NCc2ccco2)ccc1Br [CBK306193] , state its recorded viability at 28.5 h, 10 µM.
Reply text: 83.7

---

# TEST_DESCRIPTION: in vitro
# CONDITION_SET: human, hela cells, % viability
Measured viability at 28.5 h, 10 µM, listed per entry.
Value expressed in %; do not type the unit.

COMPOUND: CCn1cncc1C(=O)NCC1(c2ccccc2F)CCOCC1
viability at 28.5 h, 10 µM (%): 90.9
//
COMPOUND: COc1cc2c(cc1OC)C(CCN)=NCC2 [CBK023947C]
viability at 28.5 h, 10 µM (%): 86.6
//
COMPOUND: Cc1nn(C)c(Cl)c1S(=O)(=O)N1CCN(C)CC1
viability at 28.5 h, 10 µM (%): 106
//
COMPOUND: CCCn1ncnc1C(C)NC(=O)Nc1ccnn1CC(C)C (stereo not drawn)
viability at 28.5 h, 10 µM (%): 116
//
COMPOUND: CCN1CCCCC1CNC(=O)Cn1nc(C)cc1C (stereo not drawn)
viability at 28.5 h, 10 µM (%): 98.6

Switching to the query record.
Inquiry: Given "Cc1cccc(/N=C(\N)Nc2nc(=O)cc(C)[nH]2)c1" , state its recorded viability at 28.5 h, 10 µM.
Reply text: 93.1

---

# TEST_DESCRIPTION: in vitro
# CONDITION_SET: human, hela cells, % viability
PARAMETER_MEASURED: viability at 28.5 h, 10 µM
Write the numeric value and append its unit.

COMPOUND: COc1cc2c(cc1OC)C(CCCC#N)=[N+](C)C(C)(C)C2 [CBK008807I]
viability at 28.5 h, 10 µM: 97.9%
--
COMPOUND: CC(C)[C@@H](CO)n1c(=O)[nH]c2ncc(-c3cccc4ccccc34)nc21
viability at 28.5 h, 10 µM: 98.6%
--
COMPOUND: CC(=O)c1nnn(-c2ccc(Cl)cc2Cl)c1C
viability at 28.5 h, 10 µM: 86.7%

Inquiry: Sample O=[N+]([O-])c1ccc(OCC(O)CN2CCCN(c3nc4ccc(Cl)cc4s3)CC2)cc1 (stereo not drawn) — what was its viability at 28.5 h, 10 µM?
Reply text: 85.9%

Inquiry: Look up viability at 28.5 h, 10 µM for this compound: "Cc1ccc(Cl)cc1N1CCN(S(=O)(=O)N(C)C)CC1"
Reply text: 101%
